B1: CPEB3 Ribozyme (parent)
chain: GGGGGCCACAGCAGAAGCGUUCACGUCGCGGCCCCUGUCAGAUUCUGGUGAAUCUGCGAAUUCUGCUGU

Variants of: B1
Assay remarks: self-cleavage, relative activity (ratio to wild type); higher = more cleavage; co-transcriptional
Hi, to clarify the labels: rule met covers self-cleavage from 0.5 upward, rule not met covers anything below 0.5.

Changes	Assigned class
U38G U61C	rule not met
U26C U62G	rule met

Tell me whether self-cleavage is at least 0.5 here: U36G C54G rule not met

Tell me whether self-cleavage is at least 0.5 here: A8C C35A rule not met

Tell me whether self-cleavage is at least 0.5 here: G19C A42G rule not met
